Values compiled from patent US20240208992A1.

molecular target: human F508del-CFTR (Homo sapiens, UniProt P13569, DEL508-508); assay: F508del-CFTR cell surface expression (corrector activity), DiscoveRx ß-galactosidase complementation chemiluminescence assay in recombinant U2OS cell line; details: EC50, F508del-CFTR cell surface expression, U2OS cells, 16h compound incubation; geomean values
Sequence (P13569 with tags, fused parts or gaps DEL508-508): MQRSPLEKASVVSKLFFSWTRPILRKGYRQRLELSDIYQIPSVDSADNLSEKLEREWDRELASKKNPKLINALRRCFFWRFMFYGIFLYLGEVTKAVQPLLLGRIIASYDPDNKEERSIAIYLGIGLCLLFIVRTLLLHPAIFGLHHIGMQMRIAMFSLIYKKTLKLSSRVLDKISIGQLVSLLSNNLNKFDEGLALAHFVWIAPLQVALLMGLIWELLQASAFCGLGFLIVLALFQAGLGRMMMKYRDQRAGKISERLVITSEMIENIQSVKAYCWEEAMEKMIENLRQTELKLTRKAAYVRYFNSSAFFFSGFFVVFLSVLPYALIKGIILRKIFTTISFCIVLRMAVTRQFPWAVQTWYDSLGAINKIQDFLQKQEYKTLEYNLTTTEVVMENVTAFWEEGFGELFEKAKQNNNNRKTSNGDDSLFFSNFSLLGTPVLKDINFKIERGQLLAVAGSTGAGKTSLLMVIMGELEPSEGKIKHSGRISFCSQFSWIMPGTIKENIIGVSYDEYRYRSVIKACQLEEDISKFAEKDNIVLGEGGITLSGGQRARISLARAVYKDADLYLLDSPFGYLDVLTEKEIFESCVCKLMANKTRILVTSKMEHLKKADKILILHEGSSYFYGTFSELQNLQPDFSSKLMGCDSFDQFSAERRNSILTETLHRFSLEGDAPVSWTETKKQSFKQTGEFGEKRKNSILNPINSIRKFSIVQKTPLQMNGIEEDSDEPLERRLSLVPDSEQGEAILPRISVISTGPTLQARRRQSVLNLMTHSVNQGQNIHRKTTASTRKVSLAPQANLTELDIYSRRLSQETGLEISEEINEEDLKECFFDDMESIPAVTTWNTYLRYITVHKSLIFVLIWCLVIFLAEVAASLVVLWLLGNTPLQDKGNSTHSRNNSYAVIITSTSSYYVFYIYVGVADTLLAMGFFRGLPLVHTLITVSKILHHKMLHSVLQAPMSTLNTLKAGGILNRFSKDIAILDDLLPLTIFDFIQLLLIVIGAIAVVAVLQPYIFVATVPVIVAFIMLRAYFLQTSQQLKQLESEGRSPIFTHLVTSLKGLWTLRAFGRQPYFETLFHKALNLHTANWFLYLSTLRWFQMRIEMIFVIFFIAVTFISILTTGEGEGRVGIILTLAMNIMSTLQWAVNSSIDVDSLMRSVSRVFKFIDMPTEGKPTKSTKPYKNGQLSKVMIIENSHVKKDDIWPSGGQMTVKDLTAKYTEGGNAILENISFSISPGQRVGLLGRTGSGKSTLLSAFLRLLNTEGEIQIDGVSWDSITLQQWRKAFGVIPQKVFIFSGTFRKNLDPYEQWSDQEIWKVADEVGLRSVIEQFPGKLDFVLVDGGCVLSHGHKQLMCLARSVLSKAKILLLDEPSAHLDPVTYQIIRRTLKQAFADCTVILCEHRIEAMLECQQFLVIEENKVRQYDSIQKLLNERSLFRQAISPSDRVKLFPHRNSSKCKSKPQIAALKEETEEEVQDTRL
// EC50 lookup, one value per entry
State just the number; it will be interpreted in nM.

Look over these answered cases.
CC(C)C[C@H]1C(=O)N(C)CC(=O)N[C@H](Cc2ccccc2)COc2cccc(OC(F)F)c2C(=O)N[C@H](C(=O)NCCc2ccc3c(c2)OCO3)CC(=O)N1C	581
COc1cccc(CCNC(=O)[C@@H]2CC(=O)N(C)[C@@H](CC(C)C)C(=O)N3CCN(c4ccccc4)C[C@@H]3C(=O)N[C@H](Cc3ccccc3)COc3ccc4nc(C)oc4c3C(=O)N2)c1	175
COc1cccc(CCNC(=O)[C@@H]2CC(=O)N(C)[C@@H](CC(C)C)C(=O)N(C)CC(=O)N[C@H](Cc3ccccc3)COc3ccc4nc(C)oc4c3C(=O)N2)c1	759
CC(C)C[C@H]1C(=O)N(C)C2(CCC2)C(=O)N[C@H](Cc2ccccc2)COc2cnc3ccc(F)cc3c2C(=O)N[C@H](C(=O)NCCc2nc(C3CC3)no2)CC(=O)N1C	104

// switching to the query compound
[ask] Return value of EC50 for input COc1cccc(CCNC(=O)[C@@H]2CC(=O)N(C)[C@@H](CC(C)C)C(=O)N3CCc4ccccc4[C@H]3C(=O)N[C@H](Cc3ccccc3)COc3ccnc(OC)c3C(=O)N2)c1 (mixture of isomers) , no commentary.
[reply] 108

* * *

target: human F508del-CFTR (Homo sapiens, UniProt P13569, DEL508-508); experiment: F508del-CFTR cell surface expression (corrector activity), DiscoveRx ß-galactosidase complementation chemiluminescence assay in recombinant U2OS cell line; conditions: EC50, F508del-CFTR cell surface expression, U2OS cells, 16h compound incubation; geomean of several measurements;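 note: U2OS cells co-expressing ProLink-tagged F508del-CFTR and a membrane-anchored enzyme acceptor, where more surface CFTR restores β-galactosidase activity measured by chemiluminescence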
Rule for this label: rule met means EC50 is less than 300 nM; rule not met means EC50 is at least 300 nM.

Look over these answered cases.
COCCc1ccc(-c2noc(C[C@@H]3C(=O)N[C@H](Cc4ccccc4)COc4ccnc(OC)c4C(=O)N[C@H](C(=O)NCCc4cc(OC)no4)CC(=O)N(C)[C@@H](CC(C)C)C(=O)N3C)n2)cc1 [Example 868]	rule met
COc1cc(C[C@@H]2C(=O)N[C@H](Cc3ccccc3)COc3ccnc(OC)c3C(=O)N[C@H](C(=O)NCCc3noc(C4CC4)n3)CC(=O)N(C)[C@@H](CC(C)C)C(=O)N2C)on1 [Example 861]	rule not met
COc1noc(CCNC(=O)[C@@H]2CC(=O)N(C)[C@@H](CC(C)C)C(=O)N(C)[C@H](CC(F)F)C(=O)N[C@H](Cc3ccccc3)COc3ccc4cnc(C)cc4c3C(=O)N2)c1F [Example 970]	rule met
COc1cccc(CCNC(=O)[C@@H]2CC(=O)N(C)[C@@H](CC(C)C)C(=O)N(C)[C@H](C)C(=O)N[C@H](Cc3ccccc3)COc3nc(C)nc(OC)c3C(=O)N2)c1 [Example 860]	rule not met
COc1cc2c(c(OC)n1)C(=O)N[C@H](C(=O)NCCc1cc(C3CC3)no1)CC(=O)N(C)[C@@H](CC(C)C)C(=O)N1CCCC[C@@H]1C(=O)N[C@H](Cc1ccccc1)CO2 [Example 870]	rule met
Cc1cc(CCNC(=O)[C@@H]2CC(=O)N(C)[C@@H](CC(C)C)C(=O)N(C)[C@H](CC(F)F)C(=O)N[C@H](Cc3ccccc3)COc3ccc4ncc(F)cc4c3C(=O)N2)on1 [Example 946]	rule not met

[ask] Quick check: EC50 of COc1cc(CCNC(=O)[C@@H]2CC(=O)N(C)[C@@H](CC(C)C)C(=O)N(C)[C@H](CCOc3cnc(C)cn3)C(=O)N[C@H](Cc3ccccc3)COc3cc(C)nc(OC)c3C(=O)N2)on1 [Example 977] under 300 nM?
[reply] rule met

[ask] Quick check: EC50 of COc1noc(CCNC(=O)[C@@H]2CC(=O)N(C)[C@@H](CC(C)C)C(=O)N(C)[C@H](Cc3nc(C(F)(F)F)no3)C(=O)N[C@H](Cc3ccccc3)COc3cc(C)c4ncccc4c3C(=O)N2)n1 [Example 927] under 300 nM?
[reply] rule met

[ask] Quick check: EC50 of COc1ccc(CCNC(=O)[C@@H]2CC(=O)N(C)[C@@H](CC(C)C)C(=O)N(C)[C@H](Cc3nc(-c4ccc(F)cn4)no3)C(=O)N[C@H](Cc3ccccc3)COc3cnc4ccc(F)cc4c3C(=O)N2)nc1 [Example 847] under 300 nM?
[reply] rule met

[ask] Quick check: EC50 of CCOCC[C@@H]1C(=O)N[C@H](Cc2ccccc2)COc2cc(C)nc(OC)c2C(=O)N[C@H](C(=O)NCCc2cc(OC)no2)CC(=O)N(C)[C@@H](CC(C)C)C(=O)N1C [Example 877] under 300 nM?
[reply] rule met

[ask] Quick check: EC50 of CC(C)C[C@H]1C(=O)N(C)[C@H](Cc2nc(C(F)(F)F)no2)C(=O)N[C@H](Cc2ccccc2)COc2ccc3ncc(F)cc3c2C(=O)N[C@H](C(=O)NC[C@@H](O)c2nc(C3CC3)no2)CC(=O)N1C [Example 966] under 300 nM?
[reply] rule met

[ask] Quick check: EC50 of CC(C)C[C@H]1C(=O)N(C)C2(CC2)C(=O)N[C@H](Cc2ccccc2)COc2ccc3ncc(F)cc3c2C(=O)N[C@H](C(=O)NCCn2nnc(C3CC3)n2)CC(=O)N1C [Example 817] under 300 nM?
[reply] rule not met

[ask] Quick check: EC50 of CC(C)C[C@H]1C(=O)N(C)[C@H](CC(F)F)C(=O)N[C@H](Cc2ccccc2)COc2ccc3ncc(F)cc3c2C(=O)N[C@H](C(=O)NCCc2noc(C3CC3)n2)CC(=O)N1C [Example 801] under 300 nM?
[reply] rule met

[ask] Quick check: EC50 of COc1cccc(CCNC(=O)[C@@H]2CC(=O)N(C)[C@@H](CC(C)C)C(=O)N(C)[C@H](C(C)(C)C)C(=O)N[C@H](Cc3ccccc3)COc3cc(C)nc(OC)c3C(=O)N2)c1 [Example 865] under 300 nM?
[reply] rule met

[ask] Quick check: EC50 of COc1cc(CCNC(=O)[C@@H]2CC(=O)N(C)[C@@H](CC(C)C)C(=O)N(C)[C@H](CC3CCC(F)(F)CC3)C(=O)N[C@H](Cc3ccccc3)COc3ccnc(OC)c3C(=O)N2)on1 [Example 854] under 300 nM?
[reply] rule met

[ask] Quick check: EC50 of COc1cc(CCNC(=O)[C@@H]2CC(=O)N(C)[C@@H](CC(C)C)C(=O)N(C)[C@H](CC(F)F)C(=O)N[C@H](Cc3ccccc3)COc3ccc4ncc(F)cc4c3C(=O)N2)on1 [Example 819] under 300 nM?
[reply] rule met

[ask] Quick check: EC50 of COc1cc(CCNC(=O)[C@@H]2CC(=O)N(C)[C@@H](CC(C)C)C(=O)N3CCCC[C@@H]3C(=O)N[C@H](Cc3ccccc3)COc3ccc4ncc(F)cc4c3C(=O)N2)on1 (single isomer, unassigned) [Example 899] under 300 nM?
[reply] rule not met

[ask] Quick check: EC50 of Cc1cc(CCNC(=O)[C@@H]2CC(=O)N(C)[C@@H](CC(C)C)C(=O)N(C)[C@H](Cc3nc(-c4ccc(F)cn4)no3)C(=O)N[C@H](Cc3ccccc3)COc3ccc4ncc(F)cc4c3C(=O)N2)on1 [Example 807] under 300 nM?
[reply] rule met

[ask] Quick check: EC50 of COCCc1ccc(-c2noc(C[C@@H]3C(=O)N[C@H](Cc4ccccc4)COc4ccnc(OC)c4C(=O)N[C@H](C(=O)NCCn4ncc(C5CC5)n4)CC(=O)N(C)[C@@H](CC(C)C)C(=O)N3C)n2)cc1 [Example 871] under 300 nM?
[reply] rule met
